experimental details: Stability of the five compounds in SD rat plasma (QC samples, UHPLC-ESI-MS/MS)
Format: in vitro ADME
run parameters: SD rat plasma, nominal 5000 ng/mL, 7 days at -80°C, n=5
// stability, Accuracy (measured versus nominal concentration) lookup, one value per entry
recorded endpoint: stability, Accuracy (measured versus nominal concentration) (%)

In [3]: df
Out[3]:
                                   molecule  uom  assay_result
0  CC1=C[C@H]2[C@@H](CC1)[C@H](C)CC[C@H]2[C@@H](C)C(=O)O [DHAA, Dihydroartemisinic acid]    %         96.28
1  C[C@@H]1CC[C@H]2[C@@H](C)C(=O)O[C@@H]3O[C@@]4(C)CC[C@@H]1[C@]32OO4 [ART, Artemisinin, reference compound]    %         93.45
2  C=C(C(=O)O)[C@@H]1CC[C@@H](C)[C@@H]2CCC(C)=C[C@@H]21 [AA, Artemisinic acid]    %         94.76
3  C=C1CC[C@@H]2[C@H]3[C@@H](CC[C@H]2C)[C@@H](C)C(=O)O[C@H]13 [ARTI, Arteannuin I]    %         91.25
4  C[C@@H]1CC[C@H]2[C@@H](C)C(=O)O[C@@H]3O[C@@]4(C)CC[C@@H]1[C@]32O4 [DEART, Deoxyartemisinin]    %         94.10

* * *

run parameters: male, Sprague Dawley, rat, in vivo, po, 352 mg/kg
Vz by entry:
recorded endpoint: Vz (L)

>>> df
                                   compound  recorded_endpoint  assay_result
0  CC1=C[C@H]2[C@@H](CC1)[C@H](C)CC[C@H]2[C@@H](C)C(=O)O [DHAA, Dihydroartemisinic acid]                 Vz         0.005
1  C[C@@H]1CC[C@H]2[C@@H](C)C(=O)O[C@@H]3O[C@@]4(C)CC[C@@H]1[C@]32OO4 [ART, Artemisinin, reference compound]                 Vz         0.061
2  C[C@@H]1CC[C@H]2[C@@H](C)C(=O)O[C@@H]3O[C@@]4(C)CC[C@@H]1[C@]32O4                 Vz         0.135
3  C=C1CC[C@@H]2[C@H]3[C@@H](CC[C@H]2C)[C@@H](C)C(=O)O[C@H]13                 Vz         0.114

* * *

Quick reference for stability, mean ± SD (measured concentration) among some compounds
experimental details: Stability of the five compounds in SD rat plasma (QC samples, UHPLC-ESI-MS/MS)
Assay type: in vitro ADME
run parameters: SD rat plasma, nominal 5000 ng/mL, Room temperature 24h, n=5
recorded endpoint: stability, mean ± SD (measured concentration) (ng/mL)

                                   compound    uom  assay_result
0  C=C(C(=O)O)[C@@H]1CC[C@@H](C)[C@@H]2CCC(C)=C[C@@H]21  ng/mL          4689
1  CC1=C[C@H]2[C@@H](CC1)[C@H](C)CC[C@H]2[C@@H](C)C(=O)O [DHAA, Dihydroartemisinic acid]  ng/mL          5079
2  C=C1CC[C@@H]2[C@H]3[C@@H](CC[C@H]2C)[C@@H](C)C(=O)O[C@H]13  ng/mL          4765
3  C[C@@H]1CC[C@H]2[C@@H](C)C(=O)O[C@@H]3O[C@@]4(C)CC[C@@H]1[C@]32O4  ng/mL          5205

* * *

experimental details: in vivo
run parameters: male, Sprague Dawley, rat, po, 352 mg/kg, Cmax
recorded endpoint: Cmax

                                   molecule  recorded_endpoint  assay_result
0  C[C@@H]1CC[C@H]2[C@@H](C)C(=O)O[C@@H]3O[C@@]4(C)CC[C@@H]1[C@]32OO4 [ART, Artemisinin, reference compound]               Cmax     513 ng/mL
1  CC1=C[C@H]2[C@@H](CC1)[C@H](C)CC[C@H]2[C@@H](C)C(=O)O [DHAA, Dihydroartemisinic acid]               Cmax   10400 ng/mL
2  C=C1CC[C@@H]2[C@H]3[C@@H](CC[C@H]2C)[C@@H](C)C(=O)O[C@H]13               Cmax     222 ng/mL
3  C=C(C(=O)O)[C@@H]1CC[C@@H](C)[C@@H]2CCC(C)=C[C@@H]21               Cmax    5370 ng/mL
4  C[C@@H]1CC[C@H]2[C@@H](C)C(=O)O[C@@H]3O[C@@]4(C)CC[C@@H]1[C@]32O4               Cmax     143 ng/mL

* * *

Tested on: Caco-2 cells
experimental details: Cytotoxicity in Caco-2 cells, CCK-8 assay
Format: cell-based, human
run parameters: Caco-2, concentration 10 μmol/L, mean of 6
recorded endpoint: cck-8 mean (survival fraction)

In [3]: df
Out[3]:
                                   compound  assay_result
0  C[C@@H]1CC[C@H]2[C@@H](C)C(=O)O[C@@H]3O[C@@]4(C)CC[C@@H]1[C@]32O4 [DEART, Deoxyartemisinin]          0.84
1  CC1=C[C@H]2[C@@H](CC1)[C@H](C)CC[C@H]2[C@@H](C)C(=O)O [DHAA, Dihydroartemisinic acid]          0.86
2  C=C(C(=O)O)[C@@H]1CC[C@@H](C)[C@@H]2CCC(C)=C[C@@H]21 [AA, Artemisinic acid]          0.83
3  C[C@@H]1CC[C@H]2[C@@H](C)C(=O)O[C@@H]3O[C@@]4(C)CC[C@@H]1[C@]32OO4 [ART, Artemisinin, reference compound]         0.824

* * *

experimental details: Bidirectional transport of ART across Caco-2 cell monolayers (LC-MS/MS)
Format: in vitro ADME, human
run parameters: human, Caco-2, ART given as nACTs equivalent to 10 μM ART, Caco-2 monolayer, n = 3
recorded endpoint: Papp A→B at 180 min, 10 μM (×10⁻⁶ cm/s)

In [3]: df
Out[3]:
                                   molecule  assay_result
0  C[C@@H]1CC[C@H]2[C@@H](C)C(=O)O[C@@H]3O[C@@]4(C)CC[C@@H]1[C@]32OO4 [ART, Artemisinin, reference compound]          8.42

* * *

experimental details: Stability of the five compounds in SD rat plasma (QC samples, UHPLC-ESI-MS/MS)
Format: in vitro ADME
run parameters: SD rat plasma, nominal 5000 ng/mL, 3 freeze-thaw cycles, n=5
Method: The method was validated according to the US Food and Drug Administration (FDA) Bioanalytical Method Validation Guidance as follows: [1] specificity was assessed by analyzing blank plasma, blank plasma spiked with standard solutions and rat plasma samples after oral administration. […] The lower limit of quantification (LLOQ) refers to the lowest concentration, which is typically 10 times the signal-to-noise ratio. […]
recorded endpoint: stability, Accuracy (measured versus nominal concentration) (%)

>>> print(df.to_string())
                                   compound  assay_result
0  C[C@@H]1CC[C@H]2[C@@H](C)C(=O)O[C@@H]3O[C@@]4(C)CC[C@@H]1[C@]32OO4 [ART, Artemisinin, reference compound]         92.59
1  C[C@@H]1CC[C@H]2[C@@H](C)C(=O)O[C@@H]3O[C@@]4(C)CC[C@@H]1[C@]32O4 [DEART, Deoxyartemisinin]         95.30
2  C=C1CC[C@@H]2[C@H]3[C@@H](CC[C@H]2C)[C@@H](C)C(=O)O[C@H]13 [ARTI, Arteannuin I]         90.64
3  CC1=C[C@H]2[C@@H](CC1)[C@H](C)CC[C@H]2[C@@H](C)C(=O)O [DHAA, Dihydroartemisinic acid]         96.27
4  C=C(C(=O)O)[C@@H]1CC[C@@H](C)[C@@H]2CCC(C)=C[C@@H]21 [AA, Artemisinic acid]         95.55

* * *

experimental details: Bidirectional transport of ART across Caco-2 cell monolayers (LC-MS/MS)
Type: in vitro ADME, human
run parameters: human, Caco-2, 10 μM ART alone (PU), Caco-2 monolayer, n = 3
recorded endpoint: Papp B→A at 180 min, 10 μM (×10⁻⁶ cm/s)

>>> print(df.to_string())
                                   molecule  assay_result
0  C[C@@H]1CC[C@H]2[C@@H](C)C(=O)O[C@@H]3O[C@@]4(C)CC[C@@H]1[C@]32OO4 [ART, Artemisinin, reference compound]          82.3
